Recorded values, source the supplement of paper PMC7366291.

System: Danio rerio Tg(wt1b:EGFP) embryo, pronephros
Procedure details: glomerular width (mean of left and right), fold change vs DMSO control; higher = wider glomerulus
Experimental setup: 25 µM; exposure: 24-48 hpf
Counter-ions that a name gives are not always drawn.
Measured property: glomerular width
Numbers only.

Some solved cases for reference:
Compound	glomerular width
N=C(N)NS(=O)(=O)c1ccc(N)cc1	0.979
CCOC(=O)c1ccc(OC(=O)CCCCCNC(=N)N)cc1 [Gabexate mesilate]	0.986
CO[C@@]1(NC(=O)Cc2cccs2)C(=O)N2C(C(=O)O)=C(COC(N)=O)CS[C@@H]21 [Cefoxitin sodium salt]	0.975

Batch request: glomerular width per item, same order as input.
1. COC(=O)CCc1ccc(OCC(O)CNC(C)C)cc1 (stereo unspecified) [Esmolol hydrochloride]
2. CCCCC[C@H](O)/C=C/[C@H]1[C@H](O)CC(=O)[C@@H]1CCCCCCC(=O)O
3. CC(=O)Oc1ccccc1C(=O)Oc1ccccc1C(=O)O
4. NCCCCCC(=O)O
5. O=c1cc(-c2ccc(O)c(O)c2)oc2cc(O)cc(O)c12
6. CCOc1ccccc1OCC1CNCCO1 (stereo unspecified) [Viloxazine hydrochloride]
7. COc1ccccc1N1CCN(CCCCNC(=O)c2ccc3ccccc3c2)CC1

Output:
1.15
0.867
0.971
0.961
0.966
0.9
1.02

Input: Requested read-out glomerular width, target or system Danio rerio Tg(wt1b:EGFP) embryo, pronephros, entry CC(C)OC(=O)CCC/C=C\C[C@@H]1[C@@H](CC[C@@H](O)CCc2ccccc2)[C@H](O)C[C@@H]1O
Output: 1.05

====

System: Danio rerio Tg(wt1b:EGFP) embryo, pronephros
Procedure details: pronephric angle neck segment to proximal convoluted tubule (mean of left and right), fold change vs DMSO control; higher = larger pronephric angle
Experimental setup: 25 µM; exposure: 24-48 hpf
Where a name gives a salt, the structure may show the parent alone.
Returns one of condition met or condition not met; condition met when pronephric angle neck segment is >= 0.9.

Compound	System name	Label
CCc1nn(CCCN2CCN(c3cccc(Cl)c3)CC2)c(=O)n1CCOc1ccccc1 [Nefazodone hydrochloride]	Danio rerio Tg(wt1b:EGFP) embryo, pronephros	condition met
COC(=O)Nc1nc2ccc(SC(C)C)cc2[nH]1	Danio rerio Tg(wt1b:EGFP) embryo, pronephros	condition met
NS(=O)(=O)c1cc2c(cc1Cl)NCNS2(=O)=O [Hydrochlorothiazide]	Danio rerio Tg(wt1b:EGFP) embryo, pronephros	condition met
CC(=O)CCCCn1c(=O)c2c(ncn2C)n(C)c1=O	Danio rerio Tg(wt1b:EGFP) embryo, pronephros	condition not met

With those in mind, consider the next compound.
Input: Could you please find out whether Nc1ncnc2c1ncn2[C@@H]1O[C@H](CO)[C@@H](O)[C@@H]1O has pronephric angle neck segment that meets 0.9 or exceeds it?
Output: condition met

====

Tested on: Danio rerio Tg(wt1b:EGFP) embryo, pronephros
Procedure details: pronephric angle neck segment to proximal convoluted tubule (mean of left and right), fold change vs DMSO control; higher = larger pronephric angle
Experimental setup: 25 µM; exposure: 24-48 hpf
Counter-ions that a name gives are not always drawn.
Measured property: pronephric angle neck segment
Numbers only.

Some solved cases for reference:
Molecule	pronephric angle neck segment
CC[C@H]1OC(=O)[C@H](C)[C@@H](O[C@H]2C[C@@](C)(OC)[C@@H](O)[C@H](C)O2)[C@H](C)[C@@H](O[C@@H]2O[C@H](C)C[C@H](N(C)C)[C@H]2O)[C@](C)(O)C[C@@H](C)/C(=N\OCOCCOC)[C@H](C)[C@@H](O)[C@]1(C)O	1.02
CC(C)Cn1cnc2c(N)nc3ccccc3c21	0.978
CN(C)CC/C=C1\c2ccccc2CSc2ccccc21 [Dosulepin hydrochloride]	0.995
OC(CCN1CCCCC1)(c1ccccc1)c1ccccc1 [Pridinol methanesulfonate salt]	0.986
Cn1cnc2c1c(=O)[nH]c(=O)n2C	1.01
CCOc1ccc2c(c1)C(C)=CC(C)(C)N2	0.975
C[C@@H]1CCC[C@H](C)N1NC(=O)c1ccc(Cl)c(S(N)(=O)=O)c1 [Clopamide]	0.98

// below: pronephric angle neck segment requested for another molecule
Input: Requested read-out pronephric angle neck segment, target or system Danio rerio Tg(wt1b:EGFP) embryo, pronephros, entry CN(C)CCOC(c1ccc(Cl)cc1)c1ccccn1 (stereo not drawn) [Carbinoxamine maleate salt]
Output: 1.01
